For each record, write down the corresponding melting point.

Example entries and their recorded answers appear below.
| COMPOUND | melting point |
| --- | --- |
| Cc1nc2c3c(ccn2c1C)[C@@H](OCC[S+](C)[O-])[C@H](O)[C@@H](c1ccccc1)N3 (stereo partly drawn) | 105 to 106 °C |
| CCS[C@@H]1c2ccn3c(C)c(C)nc3c2N[C@H](c2ccccc2)[C@H]1O | 220 to 223 °C |
| CSCCO[C@H]1c2ccn3c(C)c(C)nc3c2N[C@H](c2ccccc2)[C@H]1O | 109 to 110 °C |
| CSCCO[C@@H]1c2ccn3c(C)c(C)nc3c2N[C@H](c2ccccc2)[C@H]1O | 118 to 119 °C |
| Cc1nc2c3c(ccn2c1C)[C@H](OCC[S+](C)[O-])[C@H](O)[C@@H](c1ccccc1)N3 (stereo partly drawn) | 85 to 87 °C |

We next turn to a different compound, shown below.
For record CCS[C@H]1c2ccn3c(C)c(C)nc3c2N[C@H](c2ccccc2)[C@H]1O the listed melting point is 235 to 236 °C
